Assay: Cytotoxicity (CC50) in TZM-bl cells, luminescence (CTG)
Type: cell-based
Details: human; TZM-bl cells, cultured for 48 hours; read-out: CC50
Experimental: In this Example, TZM-bl cells (available from NIH AIDS Reagent Program ([…].org/Index.cfm)) were used for individual evaluations. TZM-bl cells have CD4/CCR5/CXCR4 on the surface and express luciferase when infected with HIV. […] Luciferin is oxidized by luciferase to generate chemiluminescence, which can be detected by a luminometer to determine the number of cells infected with HIV-1. […] A Luc reporter reagent was added and the amount of luminescence (reagent: CTG) was measured […].
measure: CC50 at 48 h

compound="O=C1Nc2ccc(Cl)cc2[C@@](C#CC2CC2)(C(F)(F)F)O1 [EFV, efavirenz, reference compound]" result="28 µM"
